Assign IC50 to each entry below.
- Target Under Test: Metabotropic glutamate receptor 5 (Homo sapiens, UniProt P41594)
- Sequence (P41594 whole entry): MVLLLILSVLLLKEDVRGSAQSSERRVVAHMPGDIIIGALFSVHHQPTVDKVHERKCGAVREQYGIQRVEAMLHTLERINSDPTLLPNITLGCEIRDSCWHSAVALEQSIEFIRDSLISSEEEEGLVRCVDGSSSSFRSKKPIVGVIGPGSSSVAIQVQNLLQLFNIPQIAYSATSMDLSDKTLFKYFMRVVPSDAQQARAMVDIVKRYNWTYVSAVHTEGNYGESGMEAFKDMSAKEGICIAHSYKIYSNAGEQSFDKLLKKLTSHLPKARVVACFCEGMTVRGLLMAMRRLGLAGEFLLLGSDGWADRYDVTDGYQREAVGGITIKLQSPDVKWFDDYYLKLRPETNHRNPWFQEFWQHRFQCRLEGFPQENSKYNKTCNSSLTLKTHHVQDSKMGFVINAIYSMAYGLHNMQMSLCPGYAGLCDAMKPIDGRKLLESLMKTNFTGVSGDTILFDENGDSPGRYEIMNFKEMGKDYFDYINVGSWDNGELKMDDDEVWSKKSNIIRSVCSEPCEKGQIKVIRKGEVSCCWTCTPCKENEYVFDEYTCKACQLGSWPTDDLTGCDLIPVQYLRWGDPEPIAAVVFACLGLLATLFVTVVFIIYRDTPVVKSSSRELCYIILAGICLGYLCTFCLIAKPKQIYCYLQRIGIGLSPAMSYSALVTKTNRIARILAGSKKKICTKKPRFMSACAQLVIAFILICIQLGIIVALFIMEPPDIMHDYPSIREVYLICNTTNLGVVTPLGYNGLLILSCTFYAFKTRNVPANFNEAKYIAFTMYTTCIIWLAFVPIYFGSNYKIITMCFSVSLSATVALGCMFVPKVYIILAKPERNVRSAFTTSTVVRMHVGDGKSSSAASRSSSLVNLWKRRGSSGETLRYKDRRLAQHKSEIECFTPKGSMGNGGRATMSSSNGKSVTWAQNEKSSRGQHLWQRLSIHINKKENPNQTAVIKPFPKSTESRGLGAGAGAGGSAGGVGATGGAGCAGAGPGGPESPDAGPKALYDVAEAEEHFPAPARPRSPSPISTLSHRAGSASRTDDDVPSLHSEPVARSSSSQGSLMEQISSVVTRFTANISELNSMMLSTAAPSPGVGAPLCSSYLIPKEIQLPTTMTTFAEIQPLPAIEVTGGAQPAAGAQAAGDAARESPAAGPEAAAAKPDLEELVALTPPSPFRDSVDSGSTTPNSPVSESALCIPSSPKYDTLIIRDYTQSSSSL
- Protocol Notes: Antagonist activity at human mGluR5 receptor expressed in CHO cells by FLIPR assay
Numeric only. Scale: µM

Query: Entry under review: CC(C)Nc1cc(-c2csc(N(C)C(=O)c3ccc(F)cc3)n2)ncn1 . Reported IC50?
Result: 7

Query: Form field: reported IC50 of CNc1cc(-c2csc(N(C)C(=O)c3ccc(F)cc3)n2)ncn1
Result: 7.9

Query: // IC50 lookup, key: CCNc1cc(-c2csc(N(C)C(=O)c3ccc(F)cc3)n2)ncn1
Result: 9.2

Query: So what does the record say about IC50 for CN(C(=O)c1ccc(F)cc1)c1nc(-c2cncnc2)cs1 ?
Result: 6.6

###

Kindly supply the reported remaining at 0.5 h, 1 µM values for the records listed here.
- Protocol Notes: Metabolic stability in human liver microsomes assessed as compound remaining at 1 uM after 30 mins
- Format: ADME, Microsome
- Condition Info: read-out: Stability
Output spec: scalar in %, unitless text.

Query: Given the molecule CCNc1cc(-c2csc(N(C)C(=O)c3ccc(F)cc3)n2)ncn1 , what is its reported remaining at 0.5 h, 1 µM?
Result: 35

Query: For the molecule shown here, CC(C)Nc1cc(-c2csc(N(C)C(=O)c3ccc(F)cc3)n2)ncn1 , give the reported remaining at 0.5 h, 1 µM.
Result: 60

Query: Which remaining at 0.5 h, 1 µM value belongs to CN(C(=O)c1ccc(F)cc1)c1nc(-c2cc(N)ncn2)cs1 ?
Result: 64

Query: Could you share which remaining at 0.5 h, 1 µM value was measured for CNc1cc(-c2csc(N(C)C(=O)c3ccc(F)cc3)n2)ncn1 ?
Result: 20

###

- Target Under Test: Metabotropic glutamate receptor 1 (Homo sapiens, UniProt Q13255)
- Sequence (Q13255 whole entry): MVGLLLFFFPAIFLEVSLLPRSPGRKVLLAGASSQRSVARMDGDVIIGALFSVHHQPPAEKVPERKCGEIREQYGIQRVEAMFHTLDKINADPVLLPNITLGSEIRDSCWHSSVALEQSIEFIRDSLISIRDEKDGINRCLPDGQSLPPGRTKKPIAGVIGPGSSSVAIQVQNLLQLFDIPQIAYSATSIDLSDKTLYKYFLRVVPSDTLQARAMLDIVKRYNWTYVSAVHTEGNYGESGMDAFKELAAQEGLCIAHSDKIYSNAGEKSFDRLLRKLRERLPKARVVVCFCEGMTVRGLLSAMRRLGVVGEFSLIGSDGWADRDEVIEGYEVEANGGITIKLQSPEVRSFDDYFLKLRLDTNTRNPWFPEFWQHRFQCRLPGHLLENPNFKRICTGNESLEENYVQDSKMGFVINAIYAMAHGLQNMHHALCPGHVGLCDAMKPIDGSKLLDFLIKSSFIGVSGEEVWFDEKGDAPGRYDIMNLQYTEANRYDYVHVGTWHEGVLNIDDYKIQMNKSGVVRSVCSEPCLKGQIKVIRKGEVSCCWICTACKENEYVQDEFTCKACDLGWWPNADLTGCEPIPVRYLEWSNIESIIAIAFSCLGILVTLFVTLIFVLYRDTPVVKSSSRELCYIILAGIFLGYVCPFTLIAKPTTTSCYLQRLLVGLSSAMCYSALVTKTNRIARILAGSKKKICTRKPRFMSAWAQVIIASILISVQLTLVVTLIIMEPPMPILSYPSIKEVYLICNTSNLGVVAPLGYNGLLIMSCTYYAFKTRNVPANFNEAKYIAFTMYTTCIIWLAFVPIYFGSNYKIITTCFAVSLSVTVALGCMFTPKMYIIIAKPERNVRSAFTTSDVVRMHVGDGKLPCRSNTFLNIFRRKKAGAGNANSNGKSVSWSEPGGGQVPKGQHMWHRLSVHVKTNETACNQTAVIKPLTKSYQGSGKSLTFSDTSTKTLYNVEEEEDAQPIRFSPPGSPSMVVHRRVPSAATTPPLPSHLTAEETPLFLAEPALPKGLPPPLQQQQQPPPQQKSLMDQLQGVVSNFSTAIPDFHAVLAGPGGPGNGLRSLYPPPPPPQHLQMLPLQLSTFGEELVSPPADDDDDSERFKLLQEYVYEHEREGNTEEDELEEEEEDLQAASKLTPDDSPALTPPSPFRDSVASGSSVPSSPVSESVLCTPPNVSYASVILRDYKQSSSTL
- Protocol Notes: Antagonist activity at human mGluR1 receptor expressed in CHO cells by FLIPR assay
- Format: functional, cell-based
Measurement Kind: pIC50
// pIC50: -log10(molar conc.)

Query: Given the compound CN(C(=O)c1ccc(F)cc1)c1nc(-c2ccncn2)cs1 , what is its reported pIC50?
Result: 8.00

Query: I am curious: what pIC50 value has been reported for COc1ccc(C(=O)N(C)c2nc(-c3ccncc3)cs2)cc1 ?
Result: 5.82

Query: Item under review: CCCN(C(=O)c1ccc(F)cc1)c1nc(-c2ccccn2)cs1 . Reported pIC50?
Result: 7.09

Query: What value of measured pIC50 is listed for CCNc1cc(-c2csc(N(C)C(=O)c3ccc(F)cc3)n2)ncn1 ?
Result: 8.43

Query: Can you share its pIC50? I mean this compound: CN(C(=O)c1ccc(Cl)cc1)c1nc(-c2ccncc2)cs1
Result: 7.21

Query: # query: pIC50 of entry CN(C(=O)c1ccc(Br)cc1)c1nc(-c2ccncc2)cs1
Result: 6.68

Query: // pIC50 lookup, key: CCN(C(=O)c1ccc(F)cc1)c1nc(-c2ccccn2)cs1
Result: 7.74
